subject.of.test: human TAS2R4 (Homo sapiens)
Construct: expressed in transfected cells; host or cells: HEK293T-Gα16gust44
Sequence (Q9NYW5 whole entry): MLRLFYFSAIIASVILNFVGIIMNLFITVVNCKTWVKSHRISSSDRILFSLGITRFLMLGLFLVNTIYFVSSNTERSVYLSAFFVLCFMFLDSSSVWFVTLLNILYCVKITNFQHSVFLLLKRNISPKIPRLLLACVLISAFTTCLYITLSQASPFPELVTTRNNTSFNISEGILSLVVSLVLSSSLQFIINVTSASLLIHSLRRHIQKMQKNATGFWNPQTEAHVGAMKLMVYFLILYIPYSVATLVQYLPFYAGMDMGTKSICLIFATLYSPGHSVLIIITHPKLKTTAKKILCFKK
measurement.protocol: Calcium imaging assay (FLIPR), HEK293T-Gα16gust44 cells transfected with human TAS2R4
Assay type: cell-based
run.conditions: Time (s) 60.781 (TCA, TLCA: 60.782)
In this section, each of the compounds is paired with its reported RLU, fluorescence trace.
# output: bare number, implied unit RLU

// solved cases for RLU, fluorescence trace follow
1. C[C@H](CCC(=O)NCCS(=O)(=O)O)[C@H]1CC[C@H]2[C@@H]3CC[C@@H]4C[C@H](O)CC[C@]4(C)[C@H]3CC[C@]12C | 261.6
2. C[C@H](CCC(=O)O)[C@H]1CC[C@H]2[C@@H]3[C@H](O)C[C@@H]4C[C@H](O)CC[C@]4(C)[C@H]3C[C@H](O)[C@]12C | 679.484

# next compound below
Which RLU, fluorescence trace value belongs to C[C@H](CCC(=O)O)[C@H]1CC[C@H]2[C@@H]3CC[C@@H]4C[C@H](O)CC[C@]4(C)[C@H]3C[C@H](O)[C@]12C ?
371.413

====

In this section, each of the compounds is paired with its reported Activation threshold concentration Tas2r144.
subject.of.test: mouse Tas2r144 (Mus musculus)
Construct: expressed in transfected cells; host or cells: HEK293T-Gα16gust44
Sequence (Q7TQB8 whole entry): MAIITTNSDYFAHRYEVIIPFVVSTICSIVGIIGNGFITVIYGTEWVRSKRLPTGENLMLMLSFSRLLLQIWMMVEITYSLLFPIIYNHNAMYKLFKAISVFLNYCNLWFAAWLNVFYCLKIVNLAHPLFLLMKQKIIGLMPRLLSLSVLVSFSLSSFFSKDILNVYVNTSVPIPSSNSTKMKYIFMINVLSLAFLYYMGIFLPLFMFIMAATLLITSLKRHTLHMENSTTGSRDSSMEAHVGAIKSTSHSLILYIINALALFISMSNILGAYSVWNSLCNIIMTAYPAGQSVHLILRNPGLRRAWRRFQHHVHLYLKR
measurement.protocol: Calcium imaging assay (FLIPR), HEK293T-Gα16gust44 cells transfected with mouse Tas2r144
Assay type: cell-based
run.conditions: p < 0.01 vs empty vector
# output: bare number, implied unit µM

Which Activation threshold concentration Tas2r144 value belongs to C[C@H](CCC(=O)NCCS(=O)(=O)O)[C@H]1CC[C@H]2[C@@H]3CC[C@@H]4C[C@H](O)CC[C@]4(C)[C@H]3CC[C@]12C ?
3

Would you kindly repeat that for C[C@H](CCC(=O)O)[C@H]1CC[C@H]2[C@@H]3[C@H](O)C[C@@H]4C[C@H](O)CC[C@]4(C)[C@H]3C[C@H](O)[C@]12C ?
100

Would you kindly repeat that for C[C@H](CCC(=O)NCC(=O)O)[C@H]1CC[C@H]2[C@@H]3[C@H](O)C[C@@H]4C[C@H](O)CC[C@]4(C)[C@H]3C[C@H](O)[C@]12C ?
100

Would you kindly repeat that for C[C@H](CCC(=O)NCCS(=O)(=O)O)[C@H]1CC[C@H]2[C@@H]3[C@H](O)C[C@@H]4C[C@H](O)CC[C@]4(C)[C@H]3C[C@H](O)[C@]12C ?
300

====

subject.of.test: human TAS2R14 (Homo sapiens, UniProt Q9NYV8)
Construct: expressed in transfected cells; host or cells: HEK293T-Gα16gust44
Sequence (Q9NYV8 whole entry): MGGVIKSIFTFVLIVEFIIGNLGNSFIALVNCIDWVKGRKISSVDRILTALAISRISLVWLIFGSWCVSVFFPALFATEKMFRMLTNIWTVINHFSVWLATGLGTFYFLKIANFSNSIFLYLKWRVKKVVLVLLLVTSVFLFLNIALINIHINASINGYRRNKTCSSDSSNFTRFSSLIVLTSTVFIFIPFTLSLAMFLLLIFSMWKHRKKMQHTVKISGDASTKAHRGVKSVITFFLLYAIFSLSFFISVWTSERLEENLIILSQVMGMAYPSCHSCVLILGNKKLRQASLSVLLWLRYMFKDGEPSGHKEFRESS
measurement.protocol: Calcium imaging assay (FLIPR), HEK293T-Gα16gust44 cells transfected with human TAS2R14
Format: cell-based
run.conditions: TAS2R14 trace; Time (s) 341.578 (Taurocholic Acid 341.563, Chenodeoxycholic Acid 341.546)
In this section, each of the compounds is paired with its reported RLU.
# output: bare number, implied unit RLU

1. C[C@H](CCC(=O)O)[C@H]1CC[C@H]2[C@@H]3[C@H](O)C[C@@H]4C[C@H](O)CC[C@]4(C)[C@H]3CC[C@]12C [Chenodeoxycholic Acid, chenodeoxycholic acid] | 187.029
2. C[C@H](CCC(=O)NCC(=O)O)[C@H]1CC[C@H]2[C@@H]3[C@H](O)C[C@@H]4C[C@H](O)CC[C@]4(C)[C@H]3C[C@H](O)[C@]12C [Glycocholic Acid, glycocholic acid] | 143.607
3. C[C@H](CCC(=O)NCCS(=O)(=O)O)[C@H]1CC[C@H]2[C@@H]3[C@H](O)C[C@@H]4C[C@H](O)CC[C@]4(C)[C@H]3C[C@H](O)[C@]12C [Taurocholic Acid, taurocholic acid] | 53.5929
4. C[C@H](CCC(=O)O)[C@H]1CC[C@H]2[C@@H]3[C@H](O)C[C@@H]4C[C@H](O)CC[C@]4(C)[C@H]3C[C@H](O)[C@]12C [Cholic Acid, cholic acid] | 75.1088

# next compound below
Which RLU value belongs to C[C@H](CCC(=O)NCCS(=O)(=O)O)[C@H]1CC[C@H]2[C@@H]3CC[C@@H]4C[C@H](O)CC[C@]4(C)[C@H]3CC[C@]12C [Taurolithocholic Acid, taurolithocholic acid] ?
-81.682
